B1: LINE1-full (parent)
chain: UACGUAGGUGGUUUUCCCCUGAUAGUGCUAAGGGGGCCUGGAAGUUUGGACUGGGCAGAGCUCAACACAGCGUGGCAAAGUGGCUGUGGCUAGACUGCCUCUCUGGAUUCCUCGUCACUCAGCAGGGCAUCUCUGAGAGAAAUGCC

# Variants of: B1
# procedure.summary: self-cleavage, relative activity (ratio to wild type); higher = more cleavage; in vitro, sequencing; the parent is a self-cleaving ribozyme
Consider the following variants and their measured self-cleavage readings.

# variant.name, self-cleavage
measured = [
    ("G32U U96C", 0.08),
    ("U15C A64C", 0.64),
    ("C19U A124G", 0.88),
    ("U1C A31U", 0.61),
    ("U1C U13A", 0.69),
    ("U15C C61U", 0.05),
    ("U73C G97A", 0.41),
    ("U39C C118A", 1.33),
    ("A57U C110U", 0.05),
    ("U12A A77G", 1.88),
    ("U29C A59U", 1.13),
    ("A79G G86A", 0.09),
    ("U39G A77G", 1.53),
    ("C63U C128U", 0.23),
    ("U20A U81C", 0.84),
    ("G41U U73C", 2.76),
    ("A24G G35A", 0.69),
    ("C116U A140U", 0.71),
    ("G40U U108C", 1.59),
    ("U20G U96G", 0),
    ("A67U U109A", 0.11),
    ("A78G C133U", 1.27),
    ("U15C U81G", 1.89),
    ("A59G U87C", 0.11),
    ("C113U A129U", 1.86),
    ("A30U A92G", 0.11),
    ("U81A U96C", 0.13),
    ("A6U G53A", 0.9),
    ("A24G U130C", 1.47),
    ("U47C A136U", 1.24),
    ("U1G U100C", 1.1),
    ("U46A G75A", 0.9),
    ("A59G G135A", 0.08),
    ("G54A G82A", 0.9),
    ("A79U A141G", 1.71),
    ("G7A U45A", 0.53),
    ("G106U A138G", 0.99),
    ("A57U A142G", 0.12),
    ("G89U A92U", 0.07),
    ("C63U U81C", 0.4),
    ("A64U U96A", 0.06),
    ("G7C A129U", 1.17),
    ("A69U A79C", 0.12),
    ("A30U U47A", 1.15),
    ("G25A U100C", 1.81),
    ("A78G U81A", 0.47),
    ("C71A A78G", 0.19),
    ("U5A U115C", 0.5),
    ("U29C U102A", 1.84),
    ("U45G A107G", 0),
    ("A2G U85A", 0.25),
    ("U81C U115A", 1.44),
    ("A67G U112C", 0.39),
    ("C51A U108A", 1.31),
    ("U29A U102C", 1.2),
    ("U39C A42G", 1.44),
    ("C113G U119A", 1.38),
    ("U14A", 1.01),
    ("U15C U29C", 1.28),
    ("A64C A124U", 0.27),
    ("U26C U39C", 0.9),
]
